measurement_target: T1, human CD276 protein (human, UniProt Q5ZPR3 29-534)
T1 sequence (looked up): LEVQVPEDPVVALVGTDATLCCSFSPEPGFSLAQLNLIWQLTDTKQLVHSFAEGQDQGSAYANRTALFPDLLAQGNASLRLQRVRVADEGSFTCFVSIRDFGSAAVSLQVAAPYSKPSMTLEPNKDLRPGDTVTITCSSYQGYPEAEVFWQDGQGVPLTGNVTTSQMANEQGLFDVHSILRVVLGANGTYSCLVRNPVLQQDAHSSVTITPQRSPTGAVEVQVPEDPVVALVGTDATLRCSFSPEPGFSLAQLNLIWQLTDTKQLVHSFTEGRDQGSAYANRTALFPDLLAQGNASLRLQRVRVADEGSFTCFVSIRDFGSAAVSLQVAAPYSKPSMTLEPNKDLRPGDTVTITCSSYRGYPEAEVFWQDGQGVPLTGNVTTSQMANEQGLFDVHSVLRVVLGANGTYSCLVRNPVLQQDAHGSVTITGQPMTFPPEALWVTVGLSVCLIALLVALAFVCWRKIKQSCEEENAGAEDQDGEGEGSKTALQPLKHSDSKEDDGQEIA
test: cell-based or functional assay
Entries annotated with measured EC50 of antibody induced ADCC effect on SKOV3
Use µg/mL as the unit, but write only the number.

8-C3-E3-F3 (human IgG1 chimeric antibody) (antibody, V domains shown, human IgG1 chimeric antibody of the mouse clone) VH: EVQLVESGGGLVQPGGSLKLSCAASGFTFSNYGLSWVRLTPDKRLEVVATIGSYGGNTYYPDSVKGRFTISRDNAKNTLYLQMSSLKSEDTAIYYCARDIYYGNSEAWFAYWGQGTLVTVSA VL: DIVMTQAAFSNPVTLGTSASISCRSSKSLLHSNGITYLYWYLQKPGQSPQLLIYQMSNLASGVPDRFSSSGSETDFTLRISRVEAEDVGVYYCAQNLELPWTFGGGTKLEIK : 0.111

// next item, EC50 of antibody induced ADCC effect on SKOV3 requested
stdin: Field request: EC50 of antibody induced ADCC effect on SKOV3 | item: 7-E1-F8-F6 (human IgG1 chimeric antibody) (antibody, V domains shown, human IgG1 chimeric antibody of the mouse clone) VH: QVQLQQSGPELVKPGASVQMSCKASGYTFTDYVISWVNQRTGQGLEWIGEIYPRSGNTYYNEKFKGKATLTADKSSNTAYMQLSSLTSEDSAVYFCARFDIAYSFDYWGQGTTLTVSS VL: DVVMTQTPLSLPVSLGDQASISCRSTQSLVHSNGVTYLHWYLQKPGQSPKLLIYKVSNRFSGVPDRFSGSGSGTDFTLKISRVEAEDLGVYFCSQGTHVPWTFGGGTKLEIK
stdout: 0.0177
